Target: T1, HOIP-PUB domain (UniProt Q96EP0 71-142)
T1 chain: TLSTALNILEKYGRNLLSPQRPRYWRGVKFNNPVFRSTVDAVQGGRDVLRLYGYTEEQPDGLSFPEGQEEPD
Assay: ITC
attribute_measured: Kd (µM)
Entry rule: numbers only, all in µM.

Exam item: Entry AEHEEDMYRA [peptide derived from the PIM motif of OTULIN] needs its Kd filled in; supply it.
Marked response: 3.2
